Below: a set of entries, each annotated with reported log10 IC50.
Molecular target: VIM-2 (Escherichia coli, UniProt Q5U7L7)
Assay: biochemical
Conditions: CCF2-FA fluorescence assay; read-out: VIM2 IC50
measured_quantity: log10 IC50 (log10 of the value in nM)

compound: NOC1CCCN(c2ccc(S(=O)(=O)N[C@@H]3CCNC3)c(S(N)(=O)=O)c2-c2nn[nH]n2)C1=O (some centres unmarked) [Example 150]
numeric_readout: 0.18
//
compound: NCCC1CCN(c2ccc(S(=O)(=O)N[C@@H](CN)CO)c(S(N)(=O)=O)c2-c2nn[nH]n2)CC1 [Example 187]
numeric_readout: -0.31
//
compound: NS(=O)(=O)c1c(S(=O)(=O)N[C@@H]2CCNC2)ccc(N2CC[C@@H](O)C2)c1-c1nnn[nH]1 [Example 99]
numeric_readout: 0.51
//
compound: NCCN1CCN(c2ccc(S(=O)(=O)N[C@@H]3CCNC3)c(S(N)(=O)=O)c2-c2nnn[nH]2)CC1 [Example 76]
numeric_readout: 1.26
//
compound: NS(=O)(=O)c1c(S(=O)(=O)N[C@@H]2CCNC2)ccc(N2CCC(OCCO)CC2)c1-c1nnn[nH]1 [Example 88]
numeric_readout: -0.01
//
compound: NC[C@@H](O)CNS(=O)(=O)c1ccc(N[C@H]2C[C@@H](N)C2)c(-c2nnn[nH]2)c1S(N)(=O)=O [Example 143]
numeric_readout: 2.30
//
compound: NC(=O)[C@@H]1CN(c2ccc(S(=O)(=O)N[C@@H]3CCNC3)c(S(N)(=O)=O)c2-c2nn[nH]n2)CCN1 [Example 196]
numeric_readout: 0.23
//
compound: NCC1CCN(c2ccc(S(=O)(=O)C[C@H](O)CN)c(S(N)(=O)=O)c2-c2nn[nH]n2)CC1 [Example 128]
numeric_readout: 1.12
//
compound: NC[C@@H](O)CNS(=O)(=O)c1ccc(N2CCC(C(N)CO)CC2)c(-c2nn[nH]n2)c1S(N)(=O)=O (mixture of isomers) [Example 182]
numeric_readout: 0.58
//
compound: NCC(O)C1CCN(c2ccc(S(=O)(=O)NC[C@H](O)CN)c(S(N)(=O)=O)c2-c2nn[nH]n2)CC1 (some centres unmarked) [Example 132]
numeric_readout: 0.63
//
compound: NCCNS(=O)(=O)c1ccc(N2CCC(O)(CN)CC2)c(-c2nn[nH]n2)c1S(N)(=O)=O [Example 17]
numeric_readout: 1.81
//
compound: NS(=O)(=O)c1c(S(=O)(=O)N[C@@H]2CCNC2)ccc(N2CCN(CCCO)CC2)c1-c1nnn[nH]1 [Example 93]
numeric_readout: 0.83
//
compound: NS(=O)(=O)c1c(S(=O)(=O)N[C@@H]2CCNC2)ccc(N2CCCC(=NO)C2=O)c1-c1nn[nH]n1 [Example 152]
numeric_readout: -0.13
//
compound: NCCNS(=O)(=O)C1CCN(c2ccc(S(=O)(=O)NC[C@H](O)CN)c(S(N)(=O)=O)c2-c2nn[nH]n2)CC1 [Example 131]
numeric_readout: 0.02

----------
Below: a set of entries, each annotated with reported log10 of IC50.
Target: VIM-1 (Pseudomonas aeruginosa (strain ATCC 15692 / DSM 22644 / CIP 104116 / JCM 14847 / LMG 12228 / 1C / PRS 101 / PAO1))
Assay: biochemical
Details: CCF2-FA fluorescence assay, 2 hours at 25° C.; read-out: VIM1 IC50
measured_quantity: log10 of IC50 (log10 of the value in nM)

compound: NC[C@@H](O)CNS(=O)(=O)c1ccc(N2CCC(c3c[nH]cn3)CC2)c(-c2nnn[nH]2)c1S(N)(=O)=O
log10 of IC50: -1.00
//
compound: NC[C@@H](O)CNS(=O)(=O)c1ccc(N2CC[C@@H](CN)[C@@H](F)C2)c(-c2nn[nH]n2)c1S(N)(=O)=O (racemic)
log10 of IC50: -0.77
//
compound: CC(N)C1CCN(c2ccc(S(=O)(=O)NC[C@H](O)CN)c(S(N)(=O)=O)c2-c2nnn[nH]2)CC1 (stereo partly shown)
log10 of IC50: -0.82
//
compound: NS(=O)(=O)c1c(S(=O)(=O)N[C@@H]2CCNC2)ccc(NC2CCOCC2)c1-c1nnn[nH]1
log10 of IC50: 0.25
//
compound: NCC1CCN(c2ccc(S(=O)(=O)N[C@@H](CN)CO)c(S(N)(=O)=O)c2-c2nn[nH]n2)CC1
log10 of IC50: -1.22
//
compound: NC[C@@H](O)CNS(=O)(=O)c1ccc(N2CCC(C(N)CO)CC2)c(-c2nn[nH]n2)c1S(N)(=O)=O (single isomer, unassigned) [Example 180]
log10 of IC50: -0.36
//
compound: NCC1CCN(c2ccc(S(=O)(=O)C[C@H](O)CN)c(S(N)(=O)=O)c2-c2nn[nH]n2)CC1
log10 of IC50: -0.03
